tested on: HFF cells; assay: Cell toxicity, CellTiter-Glo; type: cell-based, human; settings: ATP production after 24 h treatment of HFF cells with 0.01–100 µM compound

compound	measured-target	EC50Tox
CCCCC(C(=O)COC(=O)c1c(C)cccc1C)n1cc(C2(N)CCCCC2)nn1 (stereo not shown)	HFF cells	12000 (3000) nM
CCCCC(C(=O)COc1c(F)c(F)cc(F)c1F)n1cc(C2(N)CCNCC2)nn1 (stereo not shown)	HFF cells	68000 (4000) nM
CCCCC(C(=O)COc1c(F)c(F)cc(F)c1F)n1cc(C2(N)CCN(C(N)=O)CC2)nn1 (stereo not shown)	HFF cells	30000 (5000) nM
CCCCC(C(=O)COc1c(F)c(F)cc(F)c1F)n1cc(C2(N)CCN(C(C)=O)CC2)nn1 (stereo not shown)	HFF cells	> 100000 nM

====

Target: DPAP1 (Plasmodium falciparum, UniProt Q8IIJ9)
Sequence (Q8IIJ9 370-599 limits assumed): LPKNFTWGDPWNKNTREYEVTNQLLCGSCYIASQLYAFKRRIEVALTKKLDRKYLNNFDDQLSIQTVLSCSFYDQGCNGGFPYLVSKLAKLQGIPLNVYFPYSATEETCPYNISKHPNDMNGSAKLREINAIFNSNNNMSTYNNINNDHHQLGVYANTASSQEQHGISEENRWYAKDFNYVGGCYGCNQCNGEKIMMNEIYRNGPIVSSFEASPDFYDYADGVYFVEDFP
Sequence (Q8IIJ9 28-209 limits assumed): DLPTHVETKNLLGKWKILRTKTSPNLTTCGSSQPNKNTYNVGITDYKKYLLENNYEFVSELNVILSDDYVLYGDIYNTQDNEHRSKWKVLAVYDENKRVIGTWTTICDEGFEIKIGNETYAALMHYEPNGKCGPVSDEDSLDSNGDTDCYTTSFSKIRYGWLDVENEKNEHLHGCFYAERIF
Sequence (Q8IIJ9 600-700 limits assumed): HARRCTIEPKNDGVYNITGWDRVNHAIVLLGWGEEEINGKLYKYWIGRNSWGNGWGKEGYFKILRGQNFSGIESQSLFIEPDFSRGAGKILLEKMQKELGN
Assay: DPAP1 specific fluorogenic assay
Type: biochemical
Details: read-out: IC50DPAP1,1h; 1h, lysates
measured-quantity: IC50 (nM)

compound	observed-result
C[C@H](N)C(=O)N[C@@H](Cc1ccc(I)cc1)C(=O)C=[N+]=[N-] [Ala-4(I)Phe-DMK]	6.4
